TARGET UNDER TEST: rat mGlu3 (Rattus norvegicus (Rat), UniProt P31422)
Sequence (P31422 23-879): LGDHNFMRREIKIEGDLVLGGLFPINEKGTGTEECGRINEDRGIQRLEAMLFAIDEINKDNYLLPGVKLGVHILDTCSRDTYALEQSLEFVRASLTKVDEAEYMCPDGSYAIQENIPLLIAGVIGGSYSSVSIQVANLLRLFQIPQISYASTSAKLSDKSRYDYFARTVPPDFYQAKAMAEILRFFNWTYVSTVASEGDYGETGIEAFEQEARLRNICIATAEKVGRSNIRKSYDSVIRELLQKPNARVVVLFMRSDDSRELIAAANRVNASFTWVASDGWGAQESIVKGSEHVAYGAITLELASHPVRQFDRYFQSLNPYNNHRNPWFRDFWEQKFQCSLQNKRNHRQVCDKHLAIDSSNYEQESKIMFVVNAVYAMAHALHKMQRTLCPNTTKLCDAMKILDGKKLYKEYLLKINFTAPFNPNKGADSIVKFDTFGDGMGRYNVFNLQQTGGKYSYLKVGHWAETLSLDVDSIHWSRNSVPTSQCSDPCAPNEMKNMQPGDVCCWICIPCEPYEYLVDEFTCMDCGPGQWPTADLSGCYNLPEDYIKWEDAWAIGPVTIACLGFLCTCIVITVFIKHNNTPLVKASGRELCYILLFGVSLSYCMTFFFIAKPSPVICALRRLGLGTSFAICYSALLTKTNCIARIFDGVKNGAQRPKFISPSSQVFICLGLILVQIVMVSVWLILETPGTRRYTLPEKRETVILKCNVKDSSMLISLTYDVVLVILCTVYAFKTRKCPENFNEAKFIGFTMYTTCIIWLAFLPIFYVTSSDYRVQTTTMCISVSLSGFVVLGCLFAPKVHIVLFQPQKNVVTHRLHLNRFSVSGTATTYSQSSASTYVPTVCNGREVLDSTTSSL
EXPERIMENTAL DETAILS: mGlu3 Ca2+ flux assay
Type: cell-based
APPLIED CONDITIONS: amplitude of response at 30 μM test compound as % of maximal response to glutamate; read-out: rat mGlu3 Glu max (%)
Collected remaining activity at 30 µM values appear next to each entry.
Reply with the number, then its unit.

* C[C@H]1CN(c2ccc(F)cc2)C(=O)c2cc(CNc3cccc(F)c3F)nn21 | 2.19%
* Cc1nc(N2CCn3nc(CNc4ccc(OC(F)F)cc4F)cc3C2=O)cs1 | 2.43%
* C[C@@H]1CN(c2ccc(F)cc2)C(=O)c2cc(CNc3cccc(F)c3)nn21 | 0.58%

(Q) I would be grateful if you could share the reported remaining activity at 30 µM for Cc1ccnc(NCc2cc3n(n2)CCN(c2ccc(F)cc2)C3=O)c1 .
(A) 1.14%

(Q) Consider the molecule shown here: COc1ccc(N(C)Cc2cc3n(n2)CCN(c2ccccc2OC)C3=O)cc1 What is its recorded remaining activity at 30 µM?
(A) 1.3%

(Q) Query (molecule): COc1ccc(N(C)Cc2cc3n(n2)CCN(c2csc(C)n2)C3=O)cc1 ; field requested: remaining activity at 30 µM
(A) 3.88%

(Q) // remaining activity at 30 µM lookup, key: COc1ccc(NCc2cc3n(n2)CCN(c2ccc(F)cc2)C3=O)cc1
(A) 1.55%

---

TARGET UNDER TEST: UniProt:P31422
EXPERIMENTAL DETAILS: mGlu3 Ca2+ flux assay
Type: cell-based
APPLIED CONDITIONS: amplitude of response at 30 μM test compound as % of maximal response to glutamate; read-out: rat mGlu3 Glu max (%)
Entries annotated with measured remaining activity at 30 µM
# value in %; strip the unit string

* COc1cccc(NCc2cc3n(n2)[C@@H](C)CN(c2ccc(F)cc2)C3=O)c1 | 8.62
* COc1ccc(NCc2cc3n(n2)CCN(c2ccc(F)c(F)c2)C3=O)cc1 | 4.04
* C[C@@H]1CN(c2ccc(F)cc2)C(=O)c2cc(CNc3ccccc3)nn21 | 5.15

Now let's try a different one.
(Q) Field request: remaining activity at 30 µM | item: COc1ccc(N(C)Cc2cc3n(n2)CCN(c2cccc(F)c2Cl)C3=O)cc1
(A) 1.5

---

# maps each entry to its pEC50
TARGET UNDER TEST: rat mGlu5 (Rattus norvegicus (Rat))
EXPERIMENTAL DETAILS: mGlu5 Ca2+ flux assay
Assay type: cell-based
APPLIED CONDITIONS: read-out: rat mGlu5 EC50 or IC50
pEC50: −log10 of the molar value.

Illustrative cases are given below, each with its answer.
• C[C@H]1CN(c2ccc(F)cc2)C(=O)c2cc(CNc3ccccc3F)nn21 = 5.28
• C[C@H]1CN(c2ccc(F)cc2)C(=O)c2cc(CNc3cc(F)ccc3F)nn21 = 5.02
• C[C@H]1CN(c2ccc(F)cc2)C(=O)c2cc(CNc3cccc(OC(F)F)c3)nn21 = < 5.00

Would you kindly look at the next entry?
(Q) Record lookup: for rat mGlu5 (Rattus norvegicus (Rat)), what pEC50 belongs to CN(Cc1cc2n(n1)CCN(c1ccc(F)cc1)C2=O)c1ccc(C#N)cc1 ?
(A) < 5.00

---

TARGET UNDER TEST: rat mGlu5 (Rattus norvegicus (Rat), UniProt P31424)
Sequence (P31424 21-1203): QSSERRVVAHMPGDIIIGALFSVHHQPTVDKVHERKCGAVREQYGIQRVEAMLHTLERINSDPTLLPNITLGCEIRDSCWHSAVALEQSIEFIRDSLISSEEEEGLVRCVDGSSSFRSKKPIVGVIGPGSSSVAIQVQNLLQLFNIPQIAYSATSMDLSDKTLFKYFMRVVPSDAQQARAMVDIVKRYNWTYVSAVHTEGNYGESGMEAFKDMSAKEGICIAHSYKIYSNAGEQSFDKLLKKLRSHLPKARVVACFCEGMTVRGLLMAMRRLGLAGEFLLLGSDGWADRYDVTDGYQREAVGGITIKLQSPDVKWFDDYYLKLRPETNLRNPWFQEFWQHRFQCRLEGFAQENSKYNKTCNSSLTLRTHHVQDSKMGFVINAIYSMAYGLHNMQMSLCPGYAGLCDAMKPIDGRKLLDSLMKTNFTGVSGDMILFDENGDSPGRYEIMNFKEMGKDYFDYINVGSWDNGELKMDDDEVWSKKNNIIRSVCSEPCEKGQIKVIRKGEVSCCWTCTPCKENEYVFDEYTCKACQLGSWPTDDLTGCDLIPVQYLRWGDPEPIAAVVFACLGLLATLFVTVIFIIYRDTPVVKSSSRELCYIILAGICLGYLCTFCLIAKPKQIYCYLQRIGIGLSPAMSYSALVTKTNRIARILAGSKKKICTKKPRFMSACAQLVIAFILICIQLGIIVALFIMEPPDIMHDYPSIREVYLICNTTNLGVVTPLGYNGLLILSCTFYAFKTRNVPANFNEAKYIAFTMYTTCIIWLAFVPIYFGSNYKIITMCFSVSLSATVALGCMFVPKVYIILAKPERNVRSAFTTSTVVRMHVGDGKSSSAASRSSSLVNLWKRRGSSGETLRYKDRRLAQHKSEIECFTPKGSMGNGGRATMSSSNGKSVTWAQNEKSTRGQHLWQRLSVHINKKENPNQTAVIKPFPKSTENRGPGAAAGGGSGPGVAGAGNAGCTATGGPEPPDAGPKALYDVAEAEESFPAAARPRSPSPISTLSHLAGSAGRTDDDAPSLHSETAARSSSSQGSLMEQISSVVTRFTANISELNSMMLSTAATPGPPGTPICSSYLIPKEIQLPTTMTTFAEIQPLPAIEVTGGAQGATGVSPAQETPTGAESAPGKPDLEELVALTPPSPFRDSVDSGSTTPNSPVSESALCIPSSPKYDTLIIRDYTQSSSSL
EXPERIMENTAL DETAILS: mGlu5 Ca2+ flux assay
Format: cell-based
APPLIED CONDITIONS: read-out: rat mGlu5 EC50 or IC50
pEC50: −log10 of the molar value.
QUANTITY MEASURED: pEC50

Example entries begin here.
- C[C@@H]1CN(c2ccc(F)cc2)C(=O)c2cc(CNc3cccc(F)c3)nn21: < 5.00
- Cc1cc(NCc2cc3n(n2)CCN(c2ccc(F)cc2)C3=O)ccc1F: < 4.52
- COc1ccc(N(C)Cc2cc3n(n2)CCN(c2ccc(Cl)cc2)C3=O)cc1: < 4.52
- COc1ccc(NCc2cc3n(n2)CCN(c2ccc(F)c(F)c2)C3=O)cc1: < 4.52

(Q) Tell me the measured pEC50 of Cc1ccnc(NCc2cc3n(n2)CCN(c2ccc(F)cc2)C3=O)c1 , please.
(A) < 4.52

---

TARGET UNDER TEST: rat mGlu3 (Rattus norvegicus (Rat), UniProt P31422)
EXPERIMENTAL DETAILS: mGlu3 Ca2+ flux assay
Format: cell-based
APPLIED CONDITIONS: NAM potency, decrease of glutamate EC80 response; >30,000 = no measurable activity; >10,000 = no plateau; read-out: rat mGlu3 IC50
Condition met if IC50 is below 900 nM. Condition not met if not; exact matches included in Condition not met.

Worked cases, answers included:
• CC(Nc1ccc(Cl)cc1)c1cc2n(n1)CCN(c1ccc(F)cc1)C2=O (centres unmarked) = Condition not met
• O=C1c2cc(CNc3ccc(OC(F)F)c(F)c3)nn2CCN1c1ccc(F)cc1 = Condition met
• COc1ccc(N(C)Cc2cc3n(n2)CCN(c2cc(F)cc(OC)c2)C3=O)cc1 = Condition not met

(Q) Please indicate whether the reported IC50 of COc1ccc(N(C)Cc2cc3n(n2)CCN(c2ccc(Cl)cc2F)C3=O)cc1 is strictly below 900 nM.
(A) Condition not met

(Q) Dear reviewer, please state whether CN(Cc1cc2n(n1)CCN(c1ccc(F)cc1)C2=O)c1ccc(Br)cc1 has IC50 strictly beneath 900 nM.
(A) Condition met

(Q) Here's an entry: COc1cccc(N2CCn3nc(CNc4ccc(OC(F)F)cc4F)cc3C2=O)c1 . Is its IC50 below 900 nM?
(A) Condition met

(Q) IC50 under 900 nM? Item: COc1ccc(N(C)Cc2cc3n(n2)CCN(c2cc(F)cc(F)c2)C3=O)cc1
(A) Condition met

(Q) Hi there! Is IC50 for Cc1nc(N2CCn3nc(CNc4ccc(OC(F)F)cc4F)cc3C2=O)cs1 below 900 nM, do you know?
(A) Condition met

(Q) Regarding CCc1ccc(NCc2cc3n(n2)CCN(c2ccc(F)cc2)C3=O)cc1 , kindly confirm whether its IC50 is beneath 900 nM.
(A) Condition not met

(Q) Would you kindly verify if IC50 of C[C@@H]1CN(c2ccc(F)cc2)C(=O)c2cc(CNc3cccc(OC(F)F)c3)nn21 is strictly less than 900 nM?
(A) Condition not met

(Q) Does the reported IC50 of COc1cccc(NCc2cc3n(n2)[C@H](C)CN(c2ccc(F)cc2)C3=O)c1 stay below 900 nM?
(A) Condition not met

(Q) In the record for Cc1ccc(N2CCn3nc(CNc4ccc(OC(F)F)cc4F)cc3C2=O)nc1 , is IC50 less than 900 nM?
(A) Condition not met

(Q) Is the reported IC50 for C[C@H]1CN(c2ccc(F)cc2)C(=O)c2cc(CNc3cccc(OC(F)F)c3)nn21 strictly below 900 nM?
(A) Condition not met

(Q) Below 900 nM on IC50? Entry O=C1c2cc(CNc3ccc(OC(F)F)cc3F)nn2CCN1c1ccc(F)cn1
(A) Condition met

(Q) Given C[C@@H]1CN(c2ccc(F)cc2)C(=O)c2cc(CNc3ccccc3F)nn21 , is recorded IC50 strictly lower than 900 nM?
(A) Condition met

(Q) I'd appreciate it if you could check whether COc1ccc(N(C)Cc2cc3n(n2)CCN(c2cccc(F)c2)C3=O)cc1 has IC50 smaller than 900 nM.
(A) Condition met

---

Fold selectivity (mGlu3 vs. mGlu5) values, listed per item
TARGET UNDER TEST: rat mGlu5 (Rattus norvegicus (Rat))
EXPERIMENTAL DETAILS: mGlu5 Ca2+ flux assay
Format: cell-based
APPLIED CONDITIONS: ratio of rat mGlu5 EC50 or IC50 to rat mGlu3 IC50

Sample records with Fold selectivity (mGlu3 vs. mGlu5):
* C[C@H]1CN(c2ccc(F)cc2)C(=O)c2cc(CNc3c(F)cc(F)cc3F)nn21 [Compound 80] | 1.79
* O=C1c2cc(CNc3cccc(F)c3)nn2CCN1c1ccc(F)cc1 [Compound 7] | 2.13
* COc1ccc(N(C)Cc2cc3n(n2)CCN(c2csc(C)n2)C3=O)cc1 [Compound 115] | >18
* C[C@H]1CN(c2ccc(F)cc2)C(=O)c2cc(CNc3cccc(OC(F)F)c3)nn21 [Compound 55] | >5.9
* O=C1c2cc(CNc3ccc(F)cc3F)nn2CCN1c1ccc(F)cc1 [Compound 28] | 1.21

(Q) Would you mind telling me what Fold selectivity (mGlu3 vs. mGlu5) value was observed for C[C@H]1CN(c2ccc(F)cc2)C(=O)c2cc(CNc3cccc(Cl)c3)nn21 [Compound 49] ?
(A) 4.45

(Q) Which Fold selectivity (mGlu3 vs. mGlu5) value belongs to COc1ccccc1NCc1cc2n(n1)CCN(c1ccc(F)cc1)C2=O [Compound 6] ?
(A) >9.8

(Q) // returns reported Fold selectivity (mGlu3 vs. mGlu5) for input COCc1ccc(N2CCn3nc(CN(C)c4ccc(OC)cc4)cc3C2=O)cc1 [Compound 120]
(A) >10

(Q) Returns the measured Fold selectivity (mGlu3 vs. mGlu5) for the input compound. Input: COc1ccc(N(C)Cc2cc3n(n2)CCN(c2ccc(Cl)cc2F)C3=O)cc1 [Compound 125]
(A) >21

(Q) Consider the compound C[C@H]1CN(c2ccc(F)cc2)C(=O)c2cc(CNc3ccc(F)c(F)c3)nn21 [Compound 78] and give its measured Fold selectivity (mGlu3 vs. mGlu5).
(A) >8.5
